// provenance: patent US8609836B2

Reported IC50 values follow for various compounds
subject-of-test: CDK4/CyclinD1 (h) (Homo sapiens, UniProt P11802)
Sequence (P11802 whole entry): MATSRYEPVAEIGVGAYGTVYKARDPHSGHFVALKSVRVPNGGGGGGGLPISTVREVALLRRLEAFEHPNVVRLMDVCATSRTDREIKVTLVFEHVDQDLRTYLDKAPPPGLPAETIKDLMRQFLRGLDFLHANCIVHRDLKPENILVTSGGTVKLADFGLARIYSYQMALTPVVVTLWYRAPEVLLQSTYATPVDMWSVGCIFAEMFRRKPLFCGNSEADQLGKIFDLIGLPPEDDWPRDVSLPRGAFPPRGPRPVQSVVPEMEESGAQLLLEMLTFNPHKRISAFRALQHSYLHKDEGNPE
Sequence (P24385 whole entry partner): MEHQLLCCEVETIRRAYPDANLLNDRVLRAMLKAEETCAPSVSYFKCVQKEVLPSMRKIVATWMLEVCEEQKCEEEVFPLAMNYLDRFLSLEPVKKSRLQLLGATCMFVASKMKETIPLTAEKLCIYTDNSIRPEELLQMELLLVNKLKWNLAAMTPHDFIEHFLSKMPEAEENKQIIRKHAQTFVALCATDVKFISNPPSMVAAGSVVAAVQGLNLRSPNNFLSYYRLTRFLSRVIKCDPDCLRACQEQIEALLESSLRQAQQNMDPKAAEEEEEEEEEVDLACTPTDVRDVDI
test-protocol: CDK4/CyclinD1 human kinase inhibition, SPA with GST-pRb substrate
Type: biochemical
assay-context: read-out: CDK4 pIC50 (converted)
readout-type: IC50

                                   compound                           subject_of_test  readout_type   result
0  COc1ccc2cc1CNCCNC(=O)[C@@H]1C[C@@H](O)CN1Cc1cc(ccc1N1CCOCC1)Nc1nccc-2n1 [Compound 177]  CDK4/CyclinD1 (h) (Homo sapiens, UniProt P11802)          IC50  > 10 µM
1  O=C1NCCCOc2ccc(cc2)-c2ccnc(n2)Nc2ccc(N3CCOCC3)c(c2)CN2CCC[C@@H]12 [Compound 7]  CDK4/CyclinD1 (h) (Homo sapiens, UniProt P11802)          IC50  6.46 µM
2  O=C1NCc2cccc(c2)-c2ccnc(n2)Nc2ccc(cc2)CN[C@H]1Cc1ccccc1 [Compound 192]  CDK4/CyclinD1 (h) (Homo sapiens, UniProt P11802)          IC50  > 10 µM
3  O=C1NCc2cccc(c2)-c2ccnc(n2)Nc2cccc(c2)CN2CCC1CC2 [Compound 124]  CDK4/CyclinD1 (h) (Homo sapiens, UniProt P11802)          IC50   1.7 µM
4  COc1ccc2cc1CN[C@@H](CO)C(=O)N(C)CCCN(C)c1ccc(cn1)-c1ccnc(n1)N2 [Compound 11]  CDK4/CyclinD1 (h) (Homo sapiens, UniProt P11802)          IC50  > 10 µM
5  CN1CCCNC(=O)C2CCN(CC2)Cc2cccc(c2)Nc2nccc(n2)-c2ccc(cc2)C1 [Compound 78]  CDK4/CyclinD1 (h) (Homo sapiens, UniProt P11802)          IC50  > 10 µM
6  O=C1NCCNCc2ccc(cc2)-c2ccnc(n2)Nc2ccc(N3CCOCC3)c(c2)CN2CCC1CC2 [Compound 71]  CDK4/CyclinD1 (h) (Homo sapiens, UniProt P11802)          IC50  > 10 µM
7  O=C1NCc2cccc(c2)-c2ccnc(n2)Nc2ccc(cc2)CN[C@H]1CO [Compound 191]  CDK4/CyclinD1 (h) (Homo sapiens, UniProt P11802)          IC50  7.41 µM
